All figures here come from patent US10487331.

Test system: surface proteins of Porphyromonas gingivalis (whole cells) (Porphyromonas gingivalis)
CONDITION CONTEXT: whole-cell binding, real-time PCR of eluted aptamer, SELEX buffer, room temperature

RESIDUES: TCCCTACGGCGCTAACTGTAACTGGGAGCGGACCTAGGTTACATGAGCCACCGTGCTACAAC [P. gingivalis aptamer]
TEST SYSTEM: surface proteins of Porphyromonas gingivalis (whole cells) (Porphyromonas gingivalis)
Kd: 4.59 nM
